Tested on: ACHN renal
experimentSummary: NCI tumour cell line growth inhibition, 48 h
propertyLabel: TGI

Q. Could you share which TGI value was measured for [N-]=[N+]=NC1(c2ccccc2)C(=O)Nc2ccccc2C1=O (stereo unspecified) ?
A. > 100 µM

Q. Would you mind doing Cc1ccc(S(=O)(=O)C(C#N)c2nc3ccccc3nc2-n2cccn2)cc1 (stereo unspecified) as well?
A. > 100 µM

Q. Another molecule to check: COc1cc(C2C3=C(COC3=O)N(CCO)c3cc4c(cc32)CCC4)cc(OC)c1O (stereo unspecified)
A. > 32.5 µM

Q. Try the molecule `Cc1ccc2ccccc2c1CC1S(=O)(=O)OCCOS1(=O)=O`
A. 28.8 µM

Q. Next molecule: `N#Cc1c(N)c(-c2ccc(Cl)cc2)c(F)c2ccccc12`
A. > 100 µM

Q. What about `COc1ccc(C(=O)Cc2cc(OC)ccc2OC)cc1` ?
A. > 100 µM

Q. Also `O=c1oc(-c2ccc(O)c(O)c2)cc2cc(O)cc(O)c12` ?
A. > 100 µM

Q. Also, C=C[C@]1(C)CC[C@]2(C)C(CC[C@@]3(C)C2C[C@H](O)[C@H](O)[C@@]3(C)O)C1 (stereo partly specified) please.
A. > 100 µM

Q. Try this molecule next: CCC1OCCN1C(C)C (stereo unspecified)
A. > 100 µM

Q. // same read-out, input: O=C1c2ccccc2-c2ccc(NC(=O)C3CCCCC3C(=O)O)cc21 (stereo unspecified)
A. > 100 µM

Q. Would you mind doing CC1Cc2c(N(C)C)ncnc2N(C)c2ccc(Cl)cc21 (stereo unspecified) as well?
A. > 100 µM

* * *

System: MDA-MB-231 breast
experimentSummary: NCI tumour cell line growth inhibition, 48 h
Give measured TGI for each item. Keep answers brief.

Q. Report TGI for `CCOC(=O)c1cc(-c2ccc(OC)c(OC)c2)c[nH]1` please.
A. > 10 µM

Q. Entry `COc1ccc(C[C@H]2C[C@@H](O)[C@@H](C)C/C=C/Cc3cccc(O)c3C(=O)O2)cn1` please
A. 39.6 µM

Q. What do you have for `C/C(=C(/c1ccc(O)cc1)c1ccc(OCCN2CCCC2)cc1)c1ccccc1` ?
A. 8.4 µM

Q. Quick one: `Cc1cc(S(=O)(=O)Nc2n[nH]c(Nc3ccccc3)n2)c(S)cc1Cl`
A. > 10 µM

Q. Now try COc1ccccc1C1C(C#N)=C(N)OC2=C1C(=O)CCC2 (stereo unspecified) .
A. > 100 µM

Q. Another compound to check: `COc1ccc(Cn2nc(OCc3ccccn3)c3cc([N+](=O)[O-])ccc32)cc1`
A. > 100 µM

Q. Request: COc1ccc(C2CC(c3c(C)nn(-c4ccccc4)c3-c3ccc(C)cc3O)=NN2c2ccccc2)cc1 (stereo unspecified)
A. > 100 µM

Q. // repeat for `COc1cc[nH]c1/C=C1\C(=O)Nc2ccc(F)c(C#CC3(O)CCOCC3)c21` and report
A. > 25 µM

Q. Okay, and `O=C1C=CC(=O)c2c(O)c(N3CCSCC3)c(Cl)c(O)c21` ?
A. 1.03 µM

Q. And C=C(CCOC)CCC1CCCCC(=C)C1=O (stereo unspecified) ?
A. > 100 µM

Q. Param item: NC(Cc1nn[nH]n1)C(=O)O (stereo unspecified)
A. > 100 µM
